# Assay System: Muscarinic acetylcholine receptor M1 (Homo sapiens) (UniProt P11229)
# Assay Notes: Positive allosteric modulation of human muscarinic acetylcholine M1 receptor expressed in CHO cells assessed as potentiation of acetylcholine-induced calcium mobilization relative to acetylcholine
# Type: functional, cell-based
Measured Quantity: %max (%)

>  <Compound>
O=C(N[C@H]1CCCCC1=O)C1CN(Cc2ccc(-n3cccn3)cc2)c2ccccc2O1 (stereo not given in full)

>  <%max / %>
78

$$$$
>  <Compound>
O=C(N[C@H]1CCCC[C@@H]1O)C1CN(Cc2ccc(Br)nc2)c2ccccc2O1 (stereo not given in full)

>  <%max / %>
91

$$$$
>  <Compound>
O=C(N[C@H]1CCOC[C@@H]1O)C1CN(Cc2ccc(-n3cccn3)cc2)c2ccccc2O1 (stereo not given in full)

>  <%max / %>
91

$$$$
>  <Compound>
O=C(N[C@H]1CCCC[C@@H]1O)C1CN(Cc2ccc(-n3cccn3)cc2)c2ccccc2O1 (mixture of isomers)

>  <%max / %>
77

$$$$
>  <Compound>
O=C(NC1CCOCC1)C1CN(Cc2ccc(-n3cccn3)cc2)c2ccccc2O1 (stereo not given)

>  <%max / %>
69

$$$$

###

# Assay System: Muscarinic acetylcholine receptor M1 (Homo sapiens)
# Assay Notes: Positive allosteric modulation of human muscarinic acetylcholine M1 receptor expressed in CHO cells assessed as potentiation of acetylcholine-induced calcium mobilization
# Assay type: functional, cell-based
# Measurement Conditions: read-out: pEC50 (converted)
Measured Quantity: EC50 (nM)

>  <Compound>
CC(C)(O)CNC(=O)C1CN(Cc2ccc(-n3cccn3)cc2)c2ccccc2O1 (stereo not given)

>  <EC50 [nM]>
5890

$$$$

(1) O=C(N[C@H]1CCCC[C@@H]1O)C1CN(Cc2ccc(-n3cccn3)cc2)c2cc(F)ccc2O1 (stereo not given in full)
(2) O=C(N[C@H]1CCCC[C@@H]1O)C1CN(Cc2ccc(Cl)nc2)c2ccccc2O1 (stereo not given in full)
(3) Cc1ccc(CN2CC(C(=O)N[C@H]3CCCC[C@@H]3O)Oc3ccccc32)cn1 (stereo not given in full)
(4) O=C(N[C@H]1CCCC[C@@H]1O)C1CN(Cc2ccc(C3CC3)nc2)c2ccccc2O1 (stereo not given in full)
Ascending sort, EC50. Respond with the label ranking, as requested.
1, 3, 4, 2

###

# Assay System: Muscarinic acetylcholine receptor M1 (Homo sapiens, UniProt P11229)
# Assay Notes: Positive allosteric modulation of human muscarinic acetylcholine M1 receptor
# Format: functional
Measured Quantity: EC50 (nM)
Field format: number, assumed nM, no unit text.

Fill in EC50 for O=C(N[C@H]1CCCC[C@@H]1O)[C@H]1CN(Cc2ccc(-n3cccn3)cc2)c2ccccc2O1 tested with Muscarinic acetylcholine receptor M1 (Homo sapiens, UniProt P11229).
250

###

# Assay System: Muscarinic acetylcholine receptor M1 (Homo sapiens) (UniProt P11229)
# Sequence (whole entry): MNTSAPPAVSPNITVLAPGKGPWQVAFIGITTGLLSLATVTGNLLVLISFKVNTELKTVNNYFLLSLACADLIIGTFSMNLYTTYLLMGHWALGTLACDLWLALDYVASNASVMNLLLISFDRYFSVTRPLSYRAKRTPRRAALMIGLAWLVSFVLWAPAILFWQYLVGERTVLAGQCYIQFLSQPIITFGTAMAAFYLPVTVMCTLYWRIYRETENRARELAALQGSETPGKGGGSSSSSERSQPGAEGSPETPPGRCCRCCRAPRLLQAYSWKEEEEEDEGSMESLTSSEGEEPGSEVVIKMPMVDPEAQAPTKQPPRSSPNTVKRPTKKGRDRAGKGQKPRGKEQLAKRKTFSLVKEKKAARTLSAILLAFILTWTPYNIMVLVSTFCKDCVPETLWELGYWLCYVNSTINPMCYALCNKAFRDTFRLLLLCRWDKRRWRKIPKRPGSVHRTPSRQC
# Assay Notes: Positive allosteric modulation of human muscarinic acetylcholine M1 receptor expressed in CHO cells assessed as potentiation of acetylcholine-induced calcium mobilization relative to acetylcholine
# Assay type: functional, cell-based
Measured Quantity: %max (%)

>  <Compound>
Cn1cc(-c2ccc(CN3CC(C(=O)N[C@H]4CCCC[C@@H]4O)Oc4ccccc43)cn2)cn1 (stereo not given in full)

>  <Assay System>
Muscarinic acetylcholine receptor M1 (Homo sapiens) (UniProt P11229)

>  <Measured Quantity>
%max

>  <Units Text>
%

>  <Measured>
84

$$$$
>  <Compound>
O=C(Nc1ncccc1O)C1CN(Cc2ccc(-n3cccn3)cc2)c2ccccc2O1 (stereo not given)

>  <Assay System>
Muscarinic acetylcholine receptor M1 (Homo sapiens) (UniProt P11229)

>  <Measured Quantity>
%max

>  <Units Text>
%

>  <Measured>
75

$$$$
>  <Compound>
O=C(N[C@H]1CCC[C@@H]1O)C1CN(Cc2ccc(-n3cccn3)cc2)c2ccccc2O1 (stereo not given in full)

>  <Assay System>
Muscarinic acetylcholine receptor M1 (Homo sapiens) (UniProt P11229)

>  <Measured Quantity>
%max

>  <Units Text>
%

>  <Measured>
77

$$$$
>  <Compound>
O=C(N[C@H]1CCCC[C@@H]1O)C1CN(Cc2ccc(C3CC3)nc2)c2ccccc2O1 (stereo not given in full)

>  <Assay System>
Muscarinic acetylcholine receptor M1 (Homo sapiens) (UniProt P11229)

>  <Measured Quantity>
%max

>  <Units Text>
%

>  <Measured>
90

$$$$
>  <Compound>
O=C(N[C@H]1CCCC[C@@H]1O)C1CN(Cc2ccc(Cl)nc2)c2ccccc2O1 (stereo not given in full)

>  <Assay System>
Muscarinic acetylcholine receptor M1 (Homo sapiens) (UniProt P11229)

>  <Measured Quantity>
%max

>  <Units Text>
%

>  <Measured>
73

$$$$
